system: Escherichia coli; assay: Antibacterial activity against Escherichia coli CIP 54127 by broth microdilution method; format: functional
MIC listing for selected compounds.
Test readout: MIC

[
  {
    "Compound": "CC(C)[C@@H](CC[C@@H](C)[C@H]1CC[C@H]2[C@@H]3[C@H](O)C[C@H]4C[C@@H](NCCCNCCCCNCCCN)CC[C@]4(C)[C@H]3CC[C@]12C)OS(=O)(=O)O.Cl.Cl.Cl.Cl [TRODUSQUEMINE HYDROCHLORIDE]",
    "Test readout": "MIC",
    "Observed": "4 µg/mL"
  },
  {
    "Compound": "CC(C)CCC[C@@H](C)[C@H]1CC[C@H]2[C@@H]3CCC4=C[C@@H](NCCCCCCN)CC[C@]4(C)[C@H]3CC[C@]12C",
    "Test readout": "MIC",
    "Observed": "> 50 µg/mL"
  },
  {
    "Compound": "CNC1CCC2(C)C(CCC3C2CCC2(C)C(C(C)CCCC(C)C)CCC32)C1 (stereo unspecified)",
    "Test readout": "MIC",
    "Observed": "> 50 µg/mL"
  },
  {
    "Compound": "CC(C)CCC[C@@H](C)[C@H]1CC[C@H]2[C@@H]3CC[C@H]4C[C@@H](NCCCCCN)CC[C@]4(C)[C@H]3CC[C@]12C",
    "Test readout": "MIC",
    "Observed": "> 50 µg/mL"
  },
  {
    "Compound": "CC(C)CCC[C@@H](C)[C@H]1CC[C@H]2[C@@H]3CC[C@H]4C[C@@H](NCCCN)CC[C@]4(C)[C@H]3CC[C@]12C",
    "Test readout": "MIC",
    "Observed": "> 50 µg/mL"
  },
  {
    "Compound": "CC(C)CCC[C@@H](C)[C@H]1CC[C@H]2[C@@H]3CC=C4C[C@@H](NCCCCN)CC[C@]4(C)[C@H]3CC[C@]12C",
    "Test readout": "MIC",
    "Observed": "6.25 µg/mL"
  }
]

----------
test system: Candida albicans; test: Antifungal activity against Candida albicans CIP 1180-79 by broth microdilution method; assay type: functional

[
  {
    "Compound structure": "CC(C)CCC[C@@H](C)[C@H]1CC[C@H]2[C@@H]3CC[C@H]4C[C@@H](NCCCCCCN)CC[C@]4(C)[C@H]3CC[C@]12C",
    "Subject of test": "Candida albicans",
    "Prefix operator": ">",
    "MIC [µg/mL]": 50
  },
  {
    "Compound structure": "CN[C@H]1CC[C@@]2(C)C(=CC[C@H]3[C@@H]4CC[C@H]([C@H](C)CCCC(C)C)[C@@]4(C)CC[C@@H]32)C1",
    "Subject of test": "Candida albicans",
    "Prefix operator": ">",
    "MIC [µg/mL]": 50
  },
  {
    "Compound structure": "CC(C)CCC[C@@H](C)[C@H]1CC[C@H]2[C@@H]3CCC4=C[C@@H](NCCCNCCCCNCCCN)CC[C@]4(C)[C@H]3CC[C@]12C",
    "Subject of test": "Candida albicans",
    "Prefix operator": "=",
    "MIC [µg/mL]": 50
  },
  {
    "Compound structure": "CC(C)CCC[C@@H](C)[C@H]1CC[C@H]2[C@@H]3CCC4=C[C@@H](NCCCCCCCCCCN)CC[C@]4(C)[C@H]3CC[C@]12C",
    "Subject of test": "Candida albicans",
    "Prefix operator": ">",
    "MIC [µg/mL]": 50
  },
  {
    "Compound structure": "CC(C)CCC[C@@H](C)[C@H]1CC[C@H]2[C@@H]3CC[C@H]4C[C@@H](NCCCCCN)CC[C@]4(C)[C@H]3CC[C@]12C",
    "Subject of test": "Candida albicans",
    "Prefix operator": "=",
    "MIC [µg/mL]": 50
  },
  {
    "Compound structure": "CC(C)CCC[C@@H](C)[C@H]1CC[C@H]2[C@@H]3CCC4=C[C@@H](NCCCN)CC[C@]4(C)[C@H]3CC[C@]12C",
    "Subject of test": "Candida albicans",
    "Prefix operator": "=",
    "MIC [µg/mL]": 25
  },
  {
    "Compound structure": "CC(C)CCC[C@@H](C)[C@H]1CC[C@H]2[C@@H]3CCC4=C[C@@H](NCCCCCCN)CC[C@]4(C)[C@H]3CC[C@]12C",
    "Subject of test": "Candida albicans",
    "Prefix operator": ">",
    "MIC [µg/mL]": 50
  }
]

----------
In this section we review reported MIC values for a set of compounds.
test system: Escherichia coli; test: Antibacterial activity against Escherichia coli CIP 54127 by broth microdilution method; format: functional
Test readout: MIC (µg/mL)

[
  {
    "Compound": "CC(C)CCC[C@@H](C)[C@H]1CC[C@H]2[C@@H]3CCC4=C[C@@H](NCCCCN)CC[C@]4(C)[C@H]3CC[C@]12C",
    "Test readout": "MIC",
    "Prefix operator": "=",
    "Observed": 25
  },
  {
    "Compound": "CC(C)CCCC(C)C1CCC2C3CCC4CC(NCCCCCCCN)CCC4(C)C3CCC12C (stereo not drawn)",
    "Test readout": "MIC",
    "Prefix operator": ">",
    "Observed": 50
  },
  {
    "Compound": "CC(C)CCC[C@@H](C)[C@H]1CC[C@H]2[C@@H]3CCC4=C[C@@H](NCCCNCCCCNCCCN)CC[C@]4(C)[C@H]3CC[C@]12C",
    "Test readout": "MIC",
    "Prefix operator": "=",
    "Observed": 50
  }
]
